# MEASUREMENT TARGET: recombinant HDMX (amino acids 1-490 of SEQ ID NO:104) (Homo sapiens)
# Construct: thioredoxin (N, cleaved yes); S tag (N, cleaved yes); hexahistidine (N, cleaved yes); made in house; host or cells: E. coli (inferred: pET32-LIC vector, handled as described for HDM2 in BL21(DE3))
# Sequence (O15151 1-490): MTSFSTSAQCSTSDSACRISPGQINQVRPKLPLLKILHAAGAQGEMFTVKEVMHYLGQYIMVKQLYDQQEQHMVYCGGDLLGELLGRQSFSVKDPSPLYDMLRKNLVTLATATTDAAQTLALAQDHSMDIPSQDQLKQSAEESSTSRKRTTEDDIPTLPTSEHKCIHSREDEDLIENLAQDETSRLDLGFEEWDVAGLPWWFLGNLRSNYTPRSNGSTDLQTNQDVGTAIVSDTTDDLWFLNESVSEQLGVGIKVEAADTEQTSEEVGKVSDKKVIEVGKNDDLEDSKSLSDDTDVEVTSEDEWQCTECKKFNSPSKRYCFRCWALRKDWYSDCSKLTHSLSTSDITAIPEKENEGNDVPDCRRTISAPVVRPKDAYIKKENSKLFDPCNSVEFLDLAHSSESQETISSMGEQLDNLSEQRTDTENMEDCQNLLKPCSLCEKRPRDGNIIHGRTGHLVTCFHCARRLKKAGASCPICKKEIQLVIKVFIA
# TEST PROTOCOL: Competitive streptavidin pull-down of biotinylated peptides with 1:1 recombinant HDM2/HDMX mixture, HDMX western
# Type: binding
# CONDITION CONTEXT: biotinylated stapled peptide, 1:1 mixture of recombinant HDM2 and HDMX
Bridges are numbered along the chain shown (N, C = ends). Where no end group is shown, it is not given here. [ ]: non-standard residue; d: D form. R8 = C=CCCCCCC[C@@](C)(N)C(=O)O; S5 = C=CCCC[C@](C)(N)C(=O)O

SUBSTANCE	HDMX versus HDM2 binding selectivity
SAH-p53-4 S15R: Formula (I) stapled peptide: [Xaa]w LRQETF, [Xaa]x DLWKLL, [Xaa]y EN (LRQETF[R8]DLWKLL[S5]EN-NH2; staple 7-14; not fully specified)	selectivity to HDM2
SAH-p53-4 S15A: Formula (I) stapled peptide: [Xaa]w LAQETF, [Xaa]x DLWKLL, [Xaa]y EN (LAQETF[R8]DLWKLL[S5]EN-NH2; staple 7-14; not fully specified)	selectivity to HDM2
